Measured values drawn from PubChem BioAssay AID1963858 for this set.

tested on: HOP-62 multicell spheroids with HUVEC/MSC, viability; assay: Anticancer human tumor HOP-62 cell line growth inhibition [KRAS2]; details: second compound 0.316 µM; first compound 0.0001 µM; stronger effect = lower value;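 note: viability read after a week of compound exposure; 100% = DMSO vehicle-treated spheroids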
READOUT: viability, T/C (%)
One number for each entry, in %.

Solved cases (4 shown):
1. CC(=O)Nc1cccc(-n2c(=O)n(C3CC3)c(=O)c3c(Nc4ccc(I)cc4F)n(C)c(=O)c(C)c32)c1 + CNCc1ccccc1-c1csc(C(C)Nc2nc(C)nc3cc(OC)c(OC)cc23)c1 :: 106
2. CC(=O)Nc1cccc(-n2c(=O)n(C3CC3)c(=O)c3c(Nc4ccc(I)cc4F)n(C)c(=O)c(C)c32)c1 + C=CC(=O)N1CCN(c2nc(OCC3CCCN3C)nc3c2CCN(c2cccc4cccc(C)c24)C3)CC1CC#N :: 52.3
3. CC(=O)Nc1cccc(-n2c(=O)n(C3CC3)c(=O)c3c(Nc4ccc(I)cc4F)n(C)c(=O)c(C)c32)c1 + CC1OCC2(CCN(c3cnc(Sc4ccnc(N)c4Cl)c(N)n3)CC2)C1N :: 79.8
4. CC(=O)Nc1cccc(-n2c(=O)n(C3CC3)c(=O)c3c(Nc4ccc(I)cc4F)n(C)c(=O)c(C)c32)c1 + COc1cc2nc(C)nc(NC(C)c3cc(N)cc(C(F)(F)F)c3)c2cc1OC1CCOC1 :: 85.2

Consider the record given below.
Could you please provide reported viability, T/C for CC(=O)Nc1cccc(-n2c(=O)n(C3CC3)c(=O)c3c(Nc4ccc(I)cc4F)n(C)c(=O)c(C)c32)c1 + C=CC(=O)N1CCN(c2nc(=O)n(-c3c(C)ccnc3C(C)C)c3nc(-c4c(O)cccc4F)c(F)cc23)C(C)C1 ? Thanks! 61.6

###

system: HOP-62 multicell spheroids with HUVEC/MSC, viability; test: Anticancer human tumor HOP-62 cell line growth inhibition [KRAS2]; conditions: second compound 0.1 µM; first compound 0.1 µM; stronger effect = lower value;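 note: viability read after a week of compound exposure; 100% = DMSO vehicle-treated spheroids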
READOUT: viability, T/C (%)
One number for each entry, in %.

Check out these entries, answers already filled in.
1. CCNC(=O)CC1N=C(c2ccc(Cl)cc2)c2cc(OC)ccc2-n2c(C)nnc21 (stereo unspecified) + C=CC(=O)N1CCN(c2nc(=O)n(-c3c(C)ccnc3C(C)C)c3nc(-c4c(O)cccc4F)c(F)cc23)C(C)C1 :: 42.7
2. CN(C)C/C=C/C(=O)Nc1cc2c(Nc3ccc(F)c(Cl)c3)ncnc2cc1O[C@H]1CCOC1 + C=CC(=O)N1CCN(c2nc(OCC3CCCN3C)nc3c2CCN(c2cccc4cccc(C)c24)C3)CC1CC#N :: 61.2
3. Cn1nccc1Nc1nccc(-c2cc3c(s2)C(C)(C)N(CCN2CCOCC2)C3=O)n1 + CNCc1ccccc1-c1csc(C(C)Nc2nc(C)nc3cc(OC)c(OC)cc23)c1 :: 102
4. COC(=O)c1ccc2c(C(=Nc3ccc(N(C)C(=O)CN4CCN(C)CC4)cc3)c3ccccc3)c(O)[nH]c2c1 + COc1cc2nc(C)nc(NC(C)c3cc(N)cc(C(F)(F)F)c3)c2cc1OC1CCOC1 :: 85.7
5. COc1cc(Nc2ncc3c(n2)-c2ccc(Cl)cc2C(c2c(F)cccc2OC)=NC3)ccc1C(=O)O + C=CC(=O)N1CCN(c2nc(OCC3CCCN3C)nc3c2CCN(c2cccc4cccc(C)c24)C3)CC1CC#N :: 28.9

Required: viability, T/C, one value per compound below.
1. CC(C)n1nc(-c2ccc3oc(N)nc3c2)c2c(N)ncnc21 + CNCc1ccccc1-c1csc(C(C)Nc2nc(C)nc3cc(OC)c(OC)cc23)c1
2. Cn1nccc1Nc1nccc(-c2cc3c(s2)C(C)(C)N(CCN2CCOCC2)C3=O)n1 + C=CC(=O)N1CCN(c2nc(=O)n(-c3c(C)ccnc3C(C)C)c3nc(-c4c(O)cccc4F)c(F)cc23)C(C)C1
3. COc1cc(Nc2ncc3c(n2)-c2ccc(Cl)cc2C(c2c(F)cccc2OC)=NC3)ccc1C(=O)O + CC1OCC2(CCN(c3cnc(Sc4ccnc(N)c4Cl)c(N)n3)CC2)C1N
4. Cn1ncnc1[C@H]1c2n[nH]c(=O)c3cc(F)cc(c23)N[C@@H]1c1ccc(F)cc1 + CC1OCC2(CCN(c3cnc(Sc4ccnc(N)c4Cl)c(N)n3)CC2)C1N
5. CC1COCCN1c1cc(-c2ccnn2C)c2ccnc(-c3ccn[nH]3)c2n1 (stereo unspecified) + COc1cc2nc(C)nc(NC(C)c3cc(N)cc(C(F)(F)F)c3)c2cc1OC1CCOC1

1: 15.9; 2: 56.7; 3: 53.9; 4: 73; 5: 7.26

Give measured viability, T/C for O=C(c1cc(Cc2n[nH]c(=O)c3ccccc23)ccc1F)N1CCN(C(=O)C2CC2)CC1 + C=CC(=O)N1CCN(c2nc(OCC3CCCN3C)nc3c2CCN(c2cccc4cccc(C)c24)C3)CC1CC#N (HOP-62 multicell spheroids with HUVEC/MSC, viability). 40.5
